# TARGET_OR_SYSTEM: MC1-R (Homo sapiens, UniProt Q01726)
# Construct: or, for MC1-R, in HBL cells; endogenous in cells; host or cells: HBL cells
# Sequence (Q01726 whole entry): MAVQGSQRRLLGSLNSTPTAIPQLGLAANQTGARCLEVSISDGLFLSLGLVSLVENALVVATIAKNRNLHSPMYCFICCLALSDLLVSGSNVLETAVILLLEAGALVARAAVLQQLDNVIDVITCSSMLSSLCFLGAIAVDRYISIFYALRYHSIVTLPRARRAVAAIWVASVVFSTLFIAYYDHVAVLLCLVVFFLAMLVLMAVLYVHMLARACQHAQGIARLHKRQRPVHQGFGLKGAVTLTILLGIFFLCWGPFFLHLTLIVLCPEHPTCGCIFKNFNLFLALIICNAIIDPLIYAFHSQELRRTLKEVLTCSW
# EXPERIMENT: Assay for agonist activity: intracellular cAMP accumulation (functional assay)
# Assay type: cell-based
# STATED_CONDITIONS: functional assays at MC1-R; maximum efficacy compared to reference agonist NDP-α-MSH
MEASURED_ATTRIBUTE: Emax

* COc1ccc(C[C@@H](NC(=O)[C@@H](N)Cc2cncn2C)C(=O)N2CCC3(CC2)C(=O)N(C)CN3c2ccccc2)cc1 | 45%
* COc1ccc(C[C@@H](NC(=O)CCc2cnc[nH]2)C(=O)N2CCC3(CC2)C(=O)N(C2CCC2)CN3c2ccccc2)cc1 | 49%
* COc1ccc(C[C@@H](NC(=O)CCc2c[nH]cn2)C(=O)N2CCC3(CC2)C(=O)N(Cc2ccccc2)CN3c2ccccc2)cc1 | 54%

====

Below: a set of entries, each annotated with reported Emax.
# TARGET_OR_SYSTEM: MC1-R (Homo sapiens, UniProt Q01726)
# Construct: or, for MC1-R, in HBL cells; endogenous in cells; host or cells: HBL cells
# EXPERIMENT: Assay for agonist activity: intracellular cAMP accumulation (functional assay)
# Assay type: cell-based
# STATED_CONDITIONS: functional assays at MC1-R; maximum efficacy compared to reference agonist NDP-α-MSH
MEASURED_ATTRIBUTE: Emax (%)

- COc1ccc(C[C@@H](NC(=O)CCc2cnc[nH]2)C(=O)N2CCC3(CC2)C(=O)N(C2CCCC2)CN3c2ccccc2)cc1: 50
- COc1ccc(C[C@@H](NC(=O)[C@@H](N)Cc2cncn2C)C(=O)N2CCC3(CC2)C(=O)N(Cc2ccccc2)CN3c2ccccc2)cc1: 46
- COc1ccc(C[C@@H](NC(=O)CCc2c[nH]cn2)C(=O)N2CCC3(CC2)C(=O)N(Cc2ccccn2)CN3c2ccccc2)cc1: 38
- COc1ccc(C[C@@H](NC(=O)CCc2cnc[nH]2)C(=O)N2CCC3(CC2)C(=O)N(CCO)CN3c2ccccc2)cc1: 60
- COC(=O)CN1CN(c2ccccc2)C2(CCN(C(=O)[C@@H](Cc3ccc(OC)cc3)NC(=O)CCc3cnc[nH]3)CC2)C1=O: 56
- COc1ccc(C[C@@H](NC(=O)CCc2c[nH]cn2)C(=O)N2CCC3(CC2)C(=O)N(Cc2ccc(Cl)cc2)CN3c2ccccc2)cc1: 45
- COc1ccc(C[C@@H](NC(=O)CCc2cnc[nH]2)C(=O)N2CCC3(CC2)C(=O)N(C(C)C)CN3c2ccccc2)cc1: 71
- COc1ccc(C[C@@H](NC(=O)[C@@H](N)Cc2cncn2C)C(=O)N2CCC3(CC2)C(=O)N(C2CCCC2)CN3c2ccccc2)cc1: 37
- CCCCN1CN(c2ccccc2)C2(CCN(C(=O)[C@@H](Cc3ccc(OC)cc3)NC(=O)[C@@H](N)Cc3cncn3C)CC2)C1=O: 43
- COc1ccc(C[C@@H](NC(=O)CCc2c[nH]cn2)C(=O)N2CCC3(CC2)C(=O)N(Cc2cccnc2)CN3c2ccccc2)cc1: 45
- COc1ccc(C[C@@H](NC(=O)[C@@H](N)Cc2cncn2C)C(=O)N2CCC3(CC2)C(=O)N(C(C)C)CN3c2ccccc2)cc1: 45
- COc1ccc(C[C@@H](NC(=O)C[C@H]2Cc3ccccc3CN2)C(=O)N2CCC3(CC2)C(=O)N(C(C)C)CN3c2ccccc2)cc1: 75
- COc1ccc(C[C@@H](NC(=O)CCc2c[nH]cn2)C(=O)N2CCC3(CC2)C(=O)N(Cc2cccc(Cl)c2)CN3c2ccccc2)cc1: 42

====

# TARGET_OR_SYSTEM: MC1-R (Homo sapiens)
# Construct: or, for MC1-R, in HBL cells; endogenous in cells
# EXPERIMENT: Assay for agonist activity: intracellular cAMP accumulation (functional assay)
# STATED_CONDITIONS: functional assays at MC1-R; HBL cells that express MC1-R; cAMP
# EC50 annotations
MEASURED_ATTRIBUTE: EC50 (nM)

• COc1ccc(C[C@@H](NC(=O)CCc2cnc[nH]2)C(=O)N2CCC3(CC2)C(=O)N(C2CCC2)CN3c2ccccc2)cc1 [Example 159] = 6
• COc1ccc(C[C@@H](NC(=O)[C@@H](N)Cc2cncn2C)C(=O)N2CCC3(CC2)C(=O)N(C)CN3c2ccccc2)cc1 [Example 139] = 177
• COc1ccc(C[C@@H](NC(=O)CCc2cnc[nH]2)C(=O)N2CCC3(CC2)C(=O)N(C(C)C)CN3c2ccccc2)cc1 [Example 150] = 3
• COc1ccc(C[C@@H](NC(=O)CCc2c[nH]cn2)C(=O)N2CCC3(CC2)C(=O)N(Cc2cccc(Cl)c2)CN3c2ccccc2)cc1 [Example 155] = 14
• COc1ccc(C[C@@H](NC(=O)CCc2cnc[nH]2)C(=O)N2CCC3(CC2)C(=O)N(CCO)CN3c2ccccc2)cc1 [Example 149] = 25
• COc1ccc(C[C@@H](NC(=O)CCc2c[nH]cn2)C(=O)N2CCC3(CC2)C(=O)N(Cc2ccc(Cl)cc2)CN3c2ccccc2)cc1 [Example 156] = 23
• COc1ccc(C[C@@H](NC(=O)C[C@H]2Cc3ccccc3CN2)C(=O)N2CCC3(CC2)C(=O)N(C(C)C)CN3c2ccccc2)cc1 [Example 164] = 0.7
• COc1ccc(C[C@@H](NC(=O)CCc2c[nH]cn2)C(=O)N2CCC3(CC2)C(=O)N(Cc2cccnc2)CN3c2ccccc2)cc1 [Example 158] = 20
• COc1ccc(C[C@@H](NC(=O)CCc2c[nH]cn2)C(=O)N2CCC3(CC2)C(=O)N(Cc2ccccc2)CN3c2ccccc2)cc1 [Example 153] = 12
• COC(=O)CN1CN(c2ccccc2)C2(CCN(C(=O)[C@@H](Cc3ccc(OC)cc3)NC(=O)CCCCN)CC2)C1=O [Example 138] = 340
• COc1ccc(C[C@@H](NC(=O)CCc2c[nH]cn2)C(=O)N2CCC3(CC2)C(=O)N(Cc2ccccc2Cl)CN3c2ccccc2)cc1 [Example 154] = 26
• COc1ccc(C[C@@H](NC(=O)[C@@H](N)Cc2cncn2C)C(=O)N2CCC3(CC2)C(=O)N(Cc2ccccc2)CN3c2ccccc2)cc1 [Example 144] = 17
• COc1ccc(C[C@@H](NC(=O)[C@@H](N)Cc2cncn2C)C(=O)N2CCC3(CC2)C(=O)N(C2CCCC2)CN3c2ccccc2)cc1 [Example 151] = 7
